Target: Sodium-dependent dopamine transporter (Rattus norvegicus, UniProt P23977)
Sequence (P23977 whole entry): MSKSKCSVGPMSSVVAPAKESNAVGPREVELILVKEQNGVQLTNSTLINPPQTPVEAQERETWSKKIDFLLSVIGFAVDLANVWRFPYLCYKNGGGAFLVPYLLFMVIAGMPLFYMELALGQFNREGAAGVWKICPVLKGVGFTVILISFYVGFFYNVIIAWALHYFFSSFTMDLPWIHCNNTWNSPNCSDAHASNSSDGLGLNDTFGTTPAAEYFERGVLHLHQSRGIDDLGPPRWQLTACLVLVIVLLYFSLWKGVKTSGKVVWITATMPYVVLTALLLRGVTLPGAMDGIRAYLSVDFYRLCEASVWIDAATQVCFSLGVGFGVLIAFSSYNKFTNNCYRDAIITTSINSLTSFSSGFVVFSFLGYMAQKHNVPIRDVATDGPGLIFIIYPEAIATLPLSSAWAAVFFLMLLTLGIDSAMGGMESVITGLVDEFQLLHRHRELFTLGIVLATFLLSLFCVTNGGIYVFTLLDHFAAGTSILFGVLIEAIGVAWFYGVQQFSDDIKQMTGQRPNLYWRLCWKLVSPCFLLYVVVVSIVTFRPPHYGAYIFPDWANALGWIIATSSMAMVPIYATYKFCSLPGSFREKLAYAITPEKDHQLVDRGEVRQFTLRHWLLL
pKi: −log10 of the molar value.
readout_name: pKi

Reported pKi, molecule CNC(Cc1ccc2c(c1)OCO2)c1ccccc1.Cl (racemic) : ____
< 5.00

Repeat for the following molecule: CNC(C)Cc1ccc2c(c1)OCO2.Cl (configuration not stated) [MIDOMAFETAMINE HYDROCHLORIDE]
< 5.00

* * *

Would you kindly list Ki for each of these compounds?
Target: 5-hydroxytryptamine receptor 1A (Rattus norvegicus, UniProt P19327)
Sequence (P19327 whole entry): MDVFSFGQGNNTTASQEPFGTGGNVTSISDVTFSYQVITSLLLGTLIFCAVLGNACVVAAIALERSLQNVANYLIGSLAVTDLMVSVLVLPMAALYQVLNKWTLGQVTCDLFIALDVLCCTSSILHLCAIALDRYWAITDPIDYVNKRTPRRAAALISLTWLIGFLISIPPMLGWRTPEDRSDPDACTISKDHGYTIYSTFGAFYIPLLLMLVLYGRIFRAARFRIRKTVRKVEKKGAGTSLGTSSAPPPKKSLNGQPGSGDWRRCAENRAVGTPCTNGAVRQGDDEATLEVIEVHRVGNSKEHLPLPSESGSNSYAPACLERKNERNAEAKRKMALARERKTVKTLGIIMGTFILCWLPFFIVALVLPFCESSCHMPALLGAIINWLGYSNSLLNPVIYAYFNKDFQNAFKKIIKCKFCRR

Reported Ki, compound CNC(C)Cc1ccc2c(c1)OCO2.Cl (configuration not stated) [MIDOMAFETAMINE HYDROCHLORIDE] : ____
> 10 µM

Repeat for the following compound: CNC(Cc1ccc2c(c1)OCO2)c1ccccc1.Cl (racemic)
> 10 µM

* * *

Target: Transporter (Rattus norvegicus)
Sequence (Q63380 whole entry): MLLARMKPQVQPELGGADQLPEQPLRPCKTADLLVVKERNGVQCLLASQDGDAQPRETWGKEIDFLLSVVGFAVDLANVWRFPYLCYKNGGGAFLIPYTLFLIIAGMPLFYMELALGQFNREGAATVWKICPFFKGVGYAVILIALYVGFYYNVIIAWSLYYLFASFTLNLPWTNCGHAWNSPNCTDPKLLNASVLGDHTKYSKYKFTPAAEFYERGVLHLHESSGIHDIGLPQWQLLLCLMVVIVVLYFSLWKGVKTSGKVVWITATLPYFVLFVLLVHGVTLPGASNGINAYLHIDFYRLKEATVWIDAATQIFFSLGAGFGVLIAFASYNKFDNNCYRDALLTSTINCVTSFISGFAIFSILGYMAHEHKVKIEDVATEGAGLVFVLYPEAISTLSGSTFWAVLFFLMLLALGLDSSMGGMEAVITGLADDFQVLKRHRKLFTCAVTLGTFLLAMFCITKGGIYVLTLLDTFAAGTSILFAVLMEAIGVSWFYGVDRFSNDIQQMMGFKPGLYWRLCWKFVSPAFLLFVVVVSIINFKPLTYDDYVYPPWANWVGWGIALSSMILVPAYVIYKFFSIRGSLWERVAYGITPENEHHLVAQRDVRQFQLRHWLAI
readout_name: pKi
For clarity, pKi is expressed as the negative log10 of concentration in mol/L.

Reported pKi, molecule CNC(Cc1ccc2c(c1)OCO2)c1ccccc1.Cl (racemic) : ____
6.15

* * *

Biological target: 5-hydroxytryptamine receptor 2C (Rattus norvegicus, UniProt P08909)
Sequence (P08909 whole entry): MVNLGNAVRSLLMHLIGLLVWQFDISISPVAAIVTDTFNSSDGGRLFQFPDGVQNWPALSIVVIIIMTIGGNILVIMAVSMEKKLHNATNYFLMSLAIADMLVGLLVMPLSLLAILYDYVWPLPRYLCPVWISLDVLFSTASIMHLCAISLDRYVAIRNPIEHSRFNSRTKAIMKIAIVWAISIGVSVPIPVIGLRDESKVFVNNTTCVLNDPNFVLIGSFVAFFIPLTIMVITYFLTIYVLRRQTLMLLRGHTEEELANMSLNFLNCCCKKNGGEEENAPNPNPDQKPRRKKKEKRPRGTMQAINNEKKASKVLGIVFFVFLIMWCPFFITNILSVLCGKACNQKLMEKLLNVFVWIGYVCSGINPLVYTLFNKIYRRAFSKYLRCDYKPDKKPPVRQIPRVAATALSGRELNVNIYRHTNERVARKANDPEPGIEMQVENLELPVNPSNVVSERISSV
Experiment: Displacement of [3H]mesulergine from 5-HT2C receptor in Sprague-Dawley rat whole brain after 60 mins by scintillation counting analysis
Would you kindly list Ki for each of these molecules?

I'm curious: which Ki was measured for CNC(C)Cc1ccc2c(c1)OCO2.Cl (configuration not stated) [MIDOMAFETAMINE HYDROCHLORIDE] tested on 5-hydroxytryptamine receptor 2C (Rattus norvegicus, UniProt P08909)?
> 10 µM

Repeat for the following molecule: CNC(Cc1ccc2c(c1)OCO2)c1ccccc1.Cl (racemic)
> 10 µM

* * *

Test system: SH-SY5Y
Test: Neurotoxicity against human SH-SY5Y cells at 1 to 600 uM after 24 hrs by Alamar Blue assay
Type: toxicity, cell-based
readout_name: Activity

INSERT INTO assay_data (molecule, readout_name, reported_measurement) VALUES
  ('CNC(Cc1ccc2c(c1)OCO2)c1ccccc1.Cl (racemic)', 'Activity', 'Toxic'),
  ('CNC(Cc1ccc2c(c1)OCO2)c1ccc2ccccc2c1.Cl (racemic)', 'Activity', 'Non-toxic'),
  ('CNC(C)Cc1ccc2c(c1)OCO2.Cl (centres undefined) [MIDOMAFETAMINE HYDROCHLORIDE]', 'Activity', 'Toxic'),
  ('CNC(Cc1ccc2c(c1)OCO2)c1cccc2ccccc12.Cl (racemic)', 'Activity', 'Non-toxic');
